Where these numbers come from: PubChem BioAssay (Tox21)

assay_details: qHTS assay to identify small molecule agonists of the estrogen receptor alpha (ER-alpha) signaling pathway in the presence of an antagonist - cell viability counter screen (AID 1259386);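 further: cells exposed to compounds for 22 h at 37 °C before the viability read; nearly all actives have a fitted effect of over 30% in size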
measurement_setup: VM7Luc4E2 viability, CellTiter-Fluor fluorescence, 22 h; series mostly up to 92.4 µM
Records with an inconclusive call do not appear. Activity calls are given as the source filed them. The call rests on the fitted dose curve; in most records, active means well fitted cell-killing curve with a large enough effect in the repeat runs; inconclusive means weak or mixed curves, or effect the other way; inactive means no such curve, though single readings can be large or run the other way.
Tick one outcome: active, inactive

Observe how each entry below is paired with its result.
                              compound  qualitative_label
0                       N#CCCN(CCO)CCO           inactive
1                 Oc1cccc(Nc2ccccc2)c1           inactive
2            C=C(C)C(=O)OCCCCCCCCCCCCC           inactive
3                  CC(=O)Nc1ccc(C)cc1C           inactive
4       CCCCCCCC/C=C\CCCCCCCCCCCC(=O)O           inactive
5     Nc1nnc(-c2ccc([N+](=O)[O-])o2)o1             active
6  O=C1c2ccccc2C(=O)c2c(O)c(O)cc(O)c21             active
7                   FC(F)(F)c1ccccc1Cl           inactive

Identify the outcome logged in this assay for the compound shown: CN1CCCN=C1COC(=O)C(O)(c1ccccc1)C1CCCCC1 (centres undefined)
inactive

Identify the outcome logged in this assay for the compound shown: C(=C\c1ccccc1)/c1ccccc1
inactive

Identify the outcome logged in this assay for the compound shown: NC1[C@H]2CN(c3nc4c(cc3F)c(=O)c(C(=O)O)cn4-c3ccc(F)cc3F)C[C@@H]12 (some centres undefined)
inactive

Identify the outcome logged in this assay for the compound shown: Nc1cccc2c1CN(C1CCC(=O)NC1=O)C2=O (centres undefined)
inactive

Identify the outcome logged in this assay for the compound shown: CC1(CN2CCC(n3c(=O)[nH]c4ccccc43)CC2)OCc2ccccc2-n2cccc21 (centres undefined)
inactive

Identify the outcome logged in this assay for the compound shown: CCCCCCCCN
inactive

* * *

assay_details: A CellTox Green Cytotoxicity Assay to monitor cytotoxicity in HepG2 cells - 32 hour (AID 1224883); further: nearly all actives have a fitted effect of over 50% in size
measurement_setup: CellTox Green fluorescence; series mostly up to 76.8 µM
Results filed as inconclusive are left out. Active and inactive are the calls of the source. Calls come from the whole dose curve; as a rule, active = well fitted activation curve with a large enough effect in the repeat runs; inconclusive = weak or mixed curves; inactive = flat fitted curve, though single readings scatter.
Tick one outcome: YES = active, NO = inactive

In [3]: df
Out[3]:
                                   compound  qualitative_label
0                                C=COCC(C)C                 NO
1          Cc1ccc(Cl)c(Nc2ccccc2C(=O)O)c1Cl                 NO
2                            CCCC(=O)C(=O)O                 NO
3                                  Cc1ccco1                 NO
4  CC(C)=CCC/C(C)=C/CC/C(C)=C/C(=O)OCC(=O)[C@@]1(O)CC[C@H]2[C@@H]3CCC4=CC(=O)C=C[C@]4(C)[C@H]3[C@@H](O)C[C@@]21C                 NO

Identify the outcome logged in this assay for the compound shown: CCCCCC[C@@H](O)C/C=C\CCCCCCCC(=O)OCC(O)CO (stereo partly specified)
NO

Identify the outcome logged in this assay for the compound shown: COc1ccc(OC(=O)N(CC(=O)O)Cc2ccc(OCCc3nc(-c4ccccc4)oc3C)cc2)cc1
NO

Identify the outcome logged in this assay for the compound shown: O=C1NCCN1CCO
NO

Identify the outcome logged in this assay for the compound shown: C=C(C)CCCC(C)CCO (stereo unspecified)
NO

Identify the outcome logged in this assay for the compound shown: CN(C)CCC=C1c2ccccc2C=Cc2ccccc21
YES

Identify the outcome logged in this assay for the compound shown: C1COC1
NO

Identify the outcome logged in this assay for the compound shown: Cc1ccccc1S
NO
